- EXPERIMENT_SUMMARY: Kinetic solubility
- Format: physicochemical
- RECORDED_CONDITIONS: kinetic from dmso stock, aqueous buffer
- Protocol: Kinetic solubility was tested using 10 mM stock solutions of test compounds in DMSO followed by dilution with an aqueous buffer to a final concentration of 250 µM and vortexed at 900 rpm for 24 h. Then, the samples were filtered and analyzed by UHPLC (Shimadzu Nexera X2, Milton Keynes, UK).
QUANTITY_KIND: solubility kinetic at 24 h
Please format your answer as a value with the unit trailing.

// Input: O=C(Nc1ccc(S(F)(F)(F)(F)F)cc1)c1cc(Cl)ccc1O [Compound 2a] . Output its solubility kinetic at 24 h only.
0.67 µM

----------
- EXPERIMENT_SUMMARY: CHI logD
- Type: physicochemical
- RECORDED_CONDITIONS: reversed-phase UHPLC
# reported chromatographic logD; entries follow
Output spec: single numeric token, no unit.

O=C(Nc1ccc(S(F)(F)(F)(F)F)cc1)c1cc(Cl)ccc1O    3.9

With those in mind, consider the next compound.
// Input: O=C(Nc1ccc(SC(F)(F)F)cc1)c1cc(Cl)ccc1O . Output its chromatographic logD only.
4.3

----------
- Test system: SK-GT-4 EAC cells
- EXPERIMENT_SUMMARY: MTT proliferation assay, SK-GT-4 cells
- Type: cell-based
- RECORDED_CONDITIONS: 72 h, read-out: Antiproliferative activity IC50, SK-GT-4
- Description: The FLO-1, SK-GT-4, and THP-1 cell lines were a gift from Dr. Shrikant Anant’s laboratory. […] The proliferation assay used a 3-(4,5-dimethylthiazol-2-yl)-2,5-diphenyltetrazolium bromide (MTT) assay. Briefly, 5000 FLO-1 and SK-GT-4 cells were counted and seeded in each well in 96-well plates. […] After incubation, the purple formazan crystals were dissolved in equal volumes of DMSO, and the absorbance of the resulting clear solutions was recorded at 570 nm using a microplate reader. […]
# reported pIC50; entries follow
Quick note: pIC50 values are minus log10 of concentrations in mol/L.

O=C(Nc1ccc(SC(F)(F)F)cc1)c1cc(Cl)ccc1O    5.69

// Input: N.N.[Cl][Pt][Cl] [Cisplatin, reference compound] . Output its pIC50 only.
5.64

----------
- Test system: M. mycetomatis MM55 strain
- EXPERIMENT_SUMMARY: In vivo activity in M. mycetomatis-infected G. mellonella larvae
- Design: species or system Galleria mellonella
- RECORDED_CONDITIONS: 20 µM, infected larvae, day 10
# reported d10 Survival Corrected with Control; entries follow
Express the result in % but write the number alone.

O=C(Nc1ccc(C(F)(F)F)cc1)c1cc(Cl)ccc1O    3.33
O=C(Nc1cccc(S(F)(F)(F)(F)F)c1)c1cc(Cl)ccc1O    −3.33
O=C(Nc1ccc(S(F)(F)(F)(F)F)cc1)c1cc(Cl)ccc1O    13.33

With those in mind, consider the next compound.
Report its d10 Survival Corrected with Control with M. mycetomatis MM55 strain as the test system: O=C(Nc1ccc(SC(F)(F)F)cc1)c1cc(Cl)ccc1O
−3.33

----------
- Test system: HepG2 hepatoma cells
- EXPERIMENT_SUMMARY: HepG2 hepatotoxicity, resazurin assay
- Format: cell-based
- RECORDED_CONDITIONS: 72 h, two independent experiments
# reported IC50; entries follow
Express the result in nM but write the number alone.

O=C(Nc1ccc(SC(F)(F)F)cc1)c1cc(Cl)ccc1O    2990

With those in mind, consider the next molecule.
Report its IC50 with HepG2 hepatoma cells as the test system: O=C(Nc1ccc(S(F)(F)(F)(F)F)cc1)c1cc(Cl)ccc1O
2260
